Target: Avi-KRAS G12D/Q25A (1-169) GppNHp/3×FLAG-PI3KCA (157-299) (Homo sapiens, UniProt P01116, G12D/Q25A)
Construct: Avi-KRAS G12D/Q25A (1-169) GppNHp
Sequence (P01116 1-169 isoform P01116-2 G12D/Q25A limits assumed): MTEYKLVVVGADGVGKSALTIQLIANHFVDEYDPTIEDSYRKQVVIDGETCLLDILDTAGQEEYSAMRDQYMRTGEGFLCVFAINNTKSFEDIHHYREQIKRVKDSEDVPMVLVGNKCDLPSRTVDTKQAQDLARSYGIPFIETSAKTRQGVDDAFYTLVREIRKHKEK
Experiment: HTRF PI3KCA-KRAS G12D/Q25A-GppNHp disruption assay
Settings: 1 h incubation
Reported IC50 values are given for each entry in this list.

# count of solved cases: 3
{"columns": ["Compound", "IC50"],
 "data": [
  ["N#CCc1cc2c(NC3CNC3)nc(OCC34CCCN3CCC4)nc2c(F)c1-c1ccc(F)c2sc(N)nc12", "1 to 10 µM"],
  ["Nc1nc2c(-c3c(C(F)(F)F)cc4c(NC5CN(C(=O)C6CN6)C5)nc(OCC56CCCN5CCC6)nc4c3F)ccc(F)c2s1 (stereo not shown)", "10 to 30 µM"],
  ["CN1CCC(c2nc(NC3CNC3)c3cc(Cl)c(-c4ccc(F)c5sc(N)nc45)c(F)c3n2)CC1", "10 to 30 µM"]
]}

We next turn to a different compound, shown below.
Enquiry: Give the reported IC50 for this compound. `Nc1nc2c(-c3c(C(F)F)cc4c(N5C[C@H]6CC[C@@H](C5)N6)nc(OC[C@@]56CCCN5C[C@H](F)C6)nc4c3Cl)ccc(F)c2s1`
Return: 0.1 to 1 µM
